Target: Protein arginine N-methyltransferase 3 (Homo sapiens, UniProt O60678)
Sequence (O60678 whole entry, the tested form may be a part): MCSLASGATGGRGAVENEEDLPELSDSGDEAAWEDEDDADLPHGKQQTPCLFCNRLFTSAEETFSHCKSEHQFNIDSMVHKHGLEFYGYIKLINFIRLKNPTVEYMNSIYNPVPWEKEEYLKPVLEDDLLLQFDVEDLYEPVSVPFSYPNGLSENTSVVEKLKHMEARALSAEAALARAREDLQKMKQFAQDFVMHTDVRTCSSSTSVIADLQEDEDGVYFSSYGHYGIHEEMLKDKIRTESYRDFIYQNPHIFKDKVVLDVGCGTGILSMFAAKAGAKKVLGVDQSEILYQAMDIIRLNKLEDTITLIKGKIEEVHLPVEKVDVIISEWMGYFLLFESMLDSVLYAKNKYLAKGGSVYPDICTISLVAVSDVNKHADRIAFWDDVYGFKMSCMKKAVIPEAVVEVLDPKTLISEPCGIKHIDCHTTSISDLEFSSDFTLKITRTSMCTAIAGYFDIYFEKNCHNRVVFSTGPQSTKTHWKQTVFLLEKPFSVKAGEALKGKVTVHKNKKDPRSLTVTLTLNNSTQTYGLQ
Assay: Binding affinity to beta galactosidase fused human PRMT3 (211 to 531 residues) expressed in human HEK293 cells after 6 hrs by InCELL hunter assay
Type: cell-based
Measurement kind: EC50 (µM)
Give the value in µM but do not write µM after it.

>>> print(df.to_string())
                        structure_as_smiles  scale_unit  experimental_value
0  O=C(NCC(=O)N1CC(F)(F)C(F)(F)C1)Nc1ccc2cnccc2c1          µM                 3.1

Would you kindly look at the next entry?
Item: O=C(NCC(=O)N1CCCC1)Nc1cc2ccncc2cc1F Test system: Protein arginine N-methyltransferase 3 (Homo sapiens, UniProt O60678) Read-out: EC50 Value: ? 2.7
